# system: Diamine acetyltransferase 1 (Homo sapiens)
# assay procedure: Activity of SSAT in human DU145 cells assessed per ug DNA at 100 uM after 24 hrs in presence of serum amine oxidase inhibitor aminoguanidine (RVb = 59 +/- 1 pmol/h per ug DNA)
# Type: cell-based
# condition details: DU-145
Please go through the items and note down their Activity.

The following molecules have reported results that may help.
CC(CN)CNCCCCN (centres undefined) ... 56 pmol/h
CC(CCN)NCCCCN (centres undefined) ... 62 pmol/h

Fill in Activity for each of the 2 molecules listed.
1. CC(N)CCCNCCCN (centres undefined)
2. C[C@H](N)CCNCCCCN

1. 65 pmol/h
2. 67 pmol/h

###

# system: Spermine oxidase (Homo sapiens) (UniProt Q9NWM0)
# Sequence (Q9NWM0 whole entry): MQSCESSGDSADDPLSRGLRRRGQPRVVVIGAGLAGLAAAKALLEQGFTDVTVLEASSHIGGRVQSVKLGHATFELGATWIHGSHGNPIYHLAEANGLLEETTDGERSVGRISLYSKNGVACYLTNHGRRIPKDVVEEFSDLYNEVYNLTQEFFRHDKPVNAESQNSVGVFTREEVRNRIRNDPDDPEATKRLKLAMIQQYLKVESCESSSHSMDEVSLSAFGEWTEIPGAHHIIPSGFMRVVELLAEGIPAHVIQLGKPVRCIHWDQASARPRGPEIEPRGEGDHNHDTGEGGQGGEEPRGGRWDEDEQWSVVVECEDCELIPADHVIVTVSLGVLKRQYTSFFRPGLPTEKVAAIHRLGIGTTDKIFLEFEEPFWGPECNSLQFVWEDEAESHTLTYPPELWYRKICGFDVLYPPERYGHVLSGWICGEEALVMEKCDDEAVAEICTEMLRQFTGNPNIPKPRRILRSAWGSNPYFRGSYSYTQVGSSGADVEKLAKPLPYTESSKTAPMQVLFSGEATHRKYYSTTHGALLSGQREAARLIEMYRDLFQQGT
# assay procedure: Activity of spermine oxidase in human DU145 cells assessed per ug DNA at 100 uM after 24 hrs in presence of serum amine oxidase inhibitor aminoguanidine (RVb = 493 +/- 22 pmol/h per ug DNA)
# Type: cell-based
# condition details: DU-145
Please go through the items and note down their Activity.

The following compounds have reported results that may help.
CC(CCN)NCCCCN (centres undefined) ... 204 pmol/h
CC(CN)CNCCCCN (centres undefined) ... 394 pmol/h
C[C@H](N)CCNCCCCN ... 362 pmol/h

Field: next compound
Fill in the recorded Activity for this compound, with Spermine oxidase (Homo sapiens) (UniProt Q9NWM0) as test system: CC(N)CCCNCCCN (centres undefined)
515 pmol/h

###

# system: Peroxisomal N(1)-acetyl-spermine/spermidine oxidase (Homo sapiens)
# assay procedure: Activity of APAO in human DU145 cells assessed per ug DNA at 100 uM after 72 hrs in presence of serum amine oxidase inhibitor aminoguanidine (RVb = 662 +/- 48 pmol/h per ug DNA)
# Type: cell-based
# condition details: DU-145
test readout: Activity (pmol/h)
Give bare numbers, in pmol/h.

CC(CN)CNCCCCN (centres undefined) ... 732
C[C@H](N)CCNCCCCN ... 745
CC(CCN)NCCCCN (centres undefined) ... 775

Field: next molecule
Sample CC(N)CCCNCCCN (centres undefined) — what was its Activity?
737

###

# system: Spermine oxidase (Homo sapiens)
# assay procedure: Activity of spermine oxidase in human DU145 cells assessed per ug DNA at 100 uM after 72 hrs in presence of serum amine oxidase inhibitor aminoguanidine (RVb = 742 +/- 10 pmol/h per ug DNA)
# Type: cell-based
# condition details: DU-145
Please go through the items and note down their Activity.
One number for each entry, in pmol/h.

The following compounds have reported results that may help.
CC(CN)CNCCCCN (centres undefined) ... 608
CC(N)CCCNCCCN (centres undefined) ... 832
C[C@H](N)CCNCCCCN ... 754

Sample CC(CCN)NCCCCN (centres undefined) — what was its Activity?
571

###

# system: UniProt P17707
# Sequence (P17707 1-67 limits assumed): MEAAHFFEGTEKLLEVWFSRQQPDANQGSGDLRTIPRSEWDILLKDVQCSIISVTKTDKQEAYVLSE
# Sequence (P17707 68-334 limits assumed): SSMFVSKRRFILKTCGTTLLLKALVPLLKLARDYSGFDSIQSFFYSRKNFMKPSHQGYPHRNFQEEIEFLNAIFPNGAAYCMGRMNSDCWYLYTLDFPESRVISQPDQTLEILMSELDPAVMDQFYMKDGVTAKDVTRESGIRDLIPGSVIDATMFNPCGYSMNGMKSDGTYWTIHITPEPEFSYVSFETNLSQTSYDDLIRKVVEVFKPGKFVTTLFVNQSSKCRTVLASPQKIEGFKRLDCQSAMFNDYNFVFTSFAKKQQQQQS
# assay procedure: Activity of S-adenosyl-L-methionine decarboxylase in human DU145 cells assessed per ug DNA at 100 uM after 48 hrs in presence of serum amine oxidase inhibitor aminoguanidine (RVb = 73 +/- 1 pmol/h per ug DNA)
# Type: cell-based
# condition details: DU-145
Please go through the items and note down their Activity.
Give bare numbers, in pmol/h.

CC(CCN)NCCCCN (centres undefined) ... 60
CC(CN)CNCCCCN (centres undefined) ... 71
C[C@H](N)CCNCCCCN ... 72

Sample CC(N)CCCNCCCN (centres undefined) — what was its Activity?
67
